This collection of values is drawn from patent US8404708B2.

ASSAYED SYSTEM: Recombinant human NK3 (hNK3) receptor (Homo sapiens, UniProt P29371)
Construct: expressed in transfected cells
Sequence (P29371 1-465): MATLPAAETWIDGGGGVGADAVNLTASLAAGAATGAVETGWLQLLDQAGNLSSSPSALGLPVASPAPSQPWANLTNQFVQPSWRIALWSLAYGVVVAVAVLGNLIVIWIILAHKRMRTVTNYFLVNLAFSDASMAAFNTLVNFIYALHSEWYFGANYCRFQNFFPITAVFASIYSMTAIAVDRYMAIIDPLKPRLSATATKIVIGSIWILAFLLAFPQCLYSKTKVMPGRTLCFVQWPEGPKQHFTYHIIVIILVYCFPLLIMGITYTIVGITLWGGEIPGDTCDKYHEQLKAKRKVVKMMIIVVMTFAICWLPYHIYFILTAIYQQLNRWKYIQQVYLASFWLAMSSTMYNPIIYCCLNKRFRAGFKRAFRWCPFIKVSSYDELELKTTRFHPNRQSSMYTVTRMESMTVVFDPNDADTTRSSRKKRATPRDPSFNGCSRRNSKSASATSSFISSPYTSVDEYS
ASSAY PROTOCOL: NK3 receptor binding, [3H]SR142801 displacement, membrane preparations
CONDITION DESCRIPTION: second value of the cell NK1/NK3; read-out: pKi NK3 (converted)
QUANTITY NAME: Ki (nM)

{"columns": ["STRUCTURE STRING", "ASSAYED SYSTEM", "SCALE UNIT", "TEST VALUE"],
 "data": [
  ["Cc1ccccc1-c1cc(N2C[C@@H](O)C[C@H]2CO)ncc1N(C)C(=O)C(C)(C)c1cc(C(F)(F)F)cc(C(F)(F)F)c1", "Recombinant human NK3 (hNK3) receptor (Homo sapiens, UniProt P29371)", "nM", 1.62]
]}

a: CN(C(=O)C(C)(C)c1cc(C(F)(F)F)cc(C(F)(F)F)c1)c1cnc(N2C[C@@H](O)C[C@H]2CO)cc1-c1ccc(F)cc1Cl
b: COc1cc(OC)cc(C(C)(C)C(=O)N(C)c2cnc(NCCO)cc2-c2ccc(F)cc2C)c1
Q: Between the entries labeled a and b , whose measured Ki is lower? Which one? Tell me its label.
Result: a

---

ASSAYED SYSTEM: human NK1 receptor (Homo sapiens)
Sequence (P25103 whole entry): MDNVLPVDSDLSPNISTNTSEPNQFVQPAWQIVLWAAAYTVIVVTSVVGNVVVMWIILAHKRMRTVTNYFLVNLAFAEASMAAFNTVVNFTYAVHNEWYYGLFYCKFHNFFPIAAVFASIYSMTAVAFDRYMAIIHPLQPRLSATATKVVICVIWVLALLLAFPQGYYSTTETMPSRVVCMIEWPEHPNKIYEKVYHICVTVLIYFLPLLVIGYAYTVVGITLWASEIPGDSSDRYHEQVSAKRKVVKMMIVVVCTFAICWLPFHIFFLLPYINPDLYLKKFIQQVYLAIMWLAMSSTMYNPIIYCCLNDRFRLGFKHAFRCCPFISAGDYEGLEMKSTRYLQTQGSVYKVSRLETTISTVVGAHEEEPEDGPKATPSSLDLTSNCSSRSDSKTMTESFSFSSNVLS
ASSAY PROTOCOL: NK1 receptor binding, [3H]substance P displacement, CHO cell membranes
CONDITION DESCRIPTION: first value of the cell pKi NK1/NK3; human NK1 receptor, [3H]substance P
pKi: −log10 of the molar value.
QUANTITY NAME: pKi

Known results for compounds:
{"columns": ["STRUCTURE STRING", "pKi"],
 "data": [
  ["CN(C(=O)C(C)(C)c1cc(C(F)(F)F)cc(C(F)(F)F)c1)c1cnc(N(CCO)CCO)cc1-c1ccc(Cl)c(Cl)c1", 8.80],
  ["Cc1ccccc1-c1cc(NC[C@H](O)CO)ncc1N(C)C(=O)C(C)(C)c1cc(C(F)(F)F)cc(C(F)(F)F)c1", 8.72],
  ["CN(C(=O)C(C)(C)c1cc(F)cc(C(F)(F)F)c1)c1cnc(N2C[C@H](O)C[C@H]2CO)cc1-c1ccccc1Cl", 8.81],
  ["CN(C(=O)C(C)(C)c1cc(C(F)(F)F)cc(C(F)(F)F)c1)c1cnc(NCC(C)(C)O)cc1-c1ccccc1Cl", 8.77]
]}

1: CN(C(=O)C(C)(C)c1cc(C(F)(F)F)cc(C(F)(F)F)c1)c1cnc(N2CCC(N)CC2)cc1-c1ccccc1Cl
2: Cc1cc(F)ccc1-c1cc(N2CC[C@H](NS(C)(=O)=O)C2)ncc1N(C)C(=O)C(C)(C)c1cc(C(F)(F)F)cc(C(F)(F)F)c1
Q: Between the entries labeled 1 and 2 , whose measured pKi is lower? Which one? Tell me its label.
Result: 2
